test system: SK-MEL-28 melanoma; test: NCI tumour cell line growth inhibition, 48 h
I'd appreciate it if you could supply TGI values for the items below.
# number only, unit µM dropped from output

Report TGI for Cc1sc2nc3c4ccccc4c(NCCCN(C)C)nn3c(=O)c2c1C
3.21

Report TGI for Cc1c(CN2CCN(C)CC2)c(CN2CCN(C)CC2)c(C)n1-c1ccc(Cl)cc1
39.2

---

I'd appreciate it if you could supply TGI values for the items below.
system: UACC-62 melanoma; assay: NCI tumour cell line growth inhibition, 48 h
# number only, unit µM dropped from output

Report TGI for S=C(N/N=C\C(=N/NC(=S)N1CCCCC1)c1ccccc1)N1CCCCC1
4.1

Report TGI for Cc1nc2sccn2c1-c1csc(Nc2cccc(Cl)c2C)n1
19.8

Report TGI for C[C@]12CCC(=O)[C@@H](CCC3=CC(=O)C=CC3=O)[C@@H]1CCC2=O
44.1

Report TGI for C=C1C(=O)O[C@H]2[C@H]1CC/C(COC(=O)c1cc3cc(Cl)ccc3[nH]1)=C\CC[C@@]1(C)O[C@@H]21
3.27

Report TGI for Nc1ccccc1C#C/C=C\C#Cc1ccccc1[N+](=O)[O-]
10.6

Report TGI for OCCNc1ncnc2c1ncn2Cc1cccc(COc2cccc(OCc3cccc(Cn4cnc5c(NCCO)ncnc54)c3)c2)c1
33.8

Report TGI for O=C1C(c2ccccc2)=[N+]([O-])c2ccccc21
29.5
